# experiment_summary: NCI Yeast Anticancer Drug Screen. Data for the mgt1 strain (AID 153)
# condition_set: S. cerevisiae mgt1 mutant growth inhibition; at 11.0 µM
This is part of a sample that, as a whole, favours compounds with a hit. Of some 79,000 tested, about 15% had one in any assay. Activity calls are given as the source filed them. Rule as the data show it: active = growth inhibition above about 70%; inactive = the rest. Residues, ends and D or L forms follow the SMILES beside them. *: point of attachment. Fmoc = O=C(OCC1c2ccccc2-c2ccccc21)*; Boc = CC(C)(C)OC(=O)*
Possible outcomes: True for active, False for inactive

# compound, class_label
records = [
    ("CC1=CC(=O)C=CC1=Nc1cc(Cl)c(O)c(Cl)c1", "False"),
    ("COc1ccc2c(c1)CCCC(Br)C2=O (configuration not stated)", "False"),
    ("CCN(CC)CCNc1ccc(C)c2sc3ccc(O)cc3c(=O)c12", "False"),
    ("CCCCN(CCCC)c1ccc(N=Nc2ccc(S(=O)(=O)O)cc2)cc1", "True"),
    ("COc1cccc(/C=C2\\S/C(=N/Nc3nc(-c4ccc([N+](=O)[O-])cc4)cs3)NC2=O)c1O", "False"),
    ("Fc1cc(F)c(F)c(S)c1F", "False"),
    ("O=[N+]([O-])[O][Sn]([O][Sn]([O][N+](=O)[O-])([c]1ccccc1)[c]1ccccc1)([c]1ccccc1)[c]1ccccc1", "False"),
    ("O=C1C(=O)c2cccc([N+](=O)[O-])c2-c2ccccc21", "False"),
    ("CCC(C)(C)c1ccc(Oc2ccccc2)c(N)c1", "True"),
    ("CCOC(=O)/C(=C/c1cccc(Cl)c1)N(CC)CC", "False"),
    ("CCCN=Cc1cc(Cc2ccc(O)c(C=NCCC)c2)ccc1O", "True"),
    ("O=C(Cc1ccccc1)NNc1nc(NNC(=O)c2ccncc2)nc(Nc2ccc(Cl)cc2)n1", "False"),
    ("O=C(NCCCCN1CC2CCCC2C1)C(C1CCCCC1)C1CCCCC1 (configuration not stated)", "False"),
    ("Cc1cccc(/C=N/NC(=S)NC2CCCCC2)n1", "False"),
    ("CCN(CC)CCNc1ccc2ncn3c4ccc(O)cc4c(=O)c1c23", "False"),
    ("CC1(C)OC(=O)C(=Cc2ccc([N+](=O)[O-])s2)C(=O)O1", "False"),
    ("NC(CCCCCCCCCCCCC(N)C(=O)c1ccccc1)C(=O)c1ccccc1 (configuration not stated)", "False"),
    ("CC(C)=CCc1c2c(c(O)c3c(=O)c(-c4ccc(O)c(O)c4)coc13)C=CC(C)(C)O2", "True"),
    ("CCN(CC)CCNc1ccc2nc(C)n3c4ccc(O)cc4c(=O)c1c23", "False"),
    ("CC1=NN(C(=O)c2ccccc2O)C(=O)/C1=C/c1ccco1", "False"),
    ("CC(C)OP(=O)(OC(C)C)/C(Cl)=N/Nc1ccc([N+](=O)[O-])cc1", "False"),
    ("O=[N+]([O-])c1cn[n+]([O-])c2ccccc12", "False"),
    ("COC1/C=C\\C=C(/C)C(=O)NC2=CC(=O)C(=O)C(=C2O)CC(C)CC(OC)C(O)C(C)/C=C(\\C)C1OC(N)=O (configuration not stated)", "True"),
    ("CC(C)(C)OC(=O)NCCCCC(NC(=O)C(Cc1c[nH]c2ccccc12)NC(=O)OCC1c2ccccc2-c2ccccc21)C(=O)O (configuration not stated) (Fmoc-Trp-Lys(Boc)-OH; configuration not given here)", "False"),
    ("Cc1cc(C)c(S(=O)(=O)c2ccc(Cl)cc2)c(C)c1", "False"),
    ("S=C1N(c2ccc(Cl)cc2)C2=C(N=Nc3ccccc3)C(=Nc3ccccc3S2)N1c1ccccn1", "False"),
    ("CN(C)CC1=Nc2cccc3cccc(c23)N1", "False"),
    ("O=c1cccccc1[O-].O=c1cccccc1[O-].O=c1cccccc1[O-].[Eu+3]", "False"),
    ("CC1=NN(C(=O)CC(=O)NC(=O)/C=C\\c2ccccc2)C(=O)C1N=Nc1ccc([N+](=O)[O-])cc1 (configuration not stated)", "False"),
    ("CC1=CN2C(c3ccccc3)=NON(c3ccc(C)cn3)C2C=C1 (configuration not stated)", "False"),
    ("CNC(=S)N/N=C(/C)CCC/C(C)=N/NC(=S)NC", "False"),
    ("CC(=O)CC(c1ccccc1)c1c(O)c2ccccc2oc1=O (configuration not stated)", "False"),
    ("OC1(C#CI)CCCCC1", "True"),
    ("CC(C)OP(=O)(OC(C)C)C(=NCCO)NNc1ccc([N+](=O)[O-])cc1", "False"),
    ("NC(=S)N/N=C1\\c2ccccc2CCC1CCC1(O)CCc2ccccc2C1=O (configuration not stated)", "False"),
    ("CC(=O)N1C=Cc2c(c(C)c3c([nH]c4ccccc43)c2C)C1", "True"),
    ("O=[N+]([O-])c1cc(Cl)ccc1S(=O)(=O)c1ccc(Cl)cc1[N+](=O)[O-]", "False"),
    ("CC1=COC2=C(C)C(=O)C(=O)c3c(C)ccc1c32", "False"),
    ("CCCCCCCN1C(=O)c2ccccc2C1=O", "False"),
    ("O=C1Oc2ccccc2C(=O)/C1=C/N1C(=O)N/C(=C\\c2ccccc2Br)C1=O", "False"),
    ("C=CCNC1=C2C[C@@H](C)C[C@H](OC)[C@H](O)[C@@H](C)/C=C(\\C)[C@H](OC(N)=O)[C@@H](OC)/C=C\\C=C(/C)C(=O)NC(=CC1=O)C2=O", "False"),
    ("COc1ccc(C(C)c2cc3c(cc2OC(C)O)OCO3)cc1 (configuration not stated)", "False"),
]
